Values were extracted from the supplement of paper PMC10567573.

B1: GLTSCR2 (parent)
chain: YNPSFEDHQTLLSAAHEVELQRQK

variants of: B1; assay: protein stability index of a GFP-peptide fusion (GPS, HEK-293T) (PSI 1-6); higher = more stable; conditions: c terminus: a fixed tail appended;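 also: lentivirally expressed fusions sorted by FACS into six bins by GFP to DsRed ratio, PSI derived from sequencing read proportions per bin multiplied by bin number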
PROPERTY: protein stability index
Write the value as a bare number.

Task item: Item under review: L12N . Reported protein stability index?
Reply: 4.54

Task item: Entry Y1V : reported protein stability index = ?
Reply: 5.11

Task item: I have this variant here, L11I , and I need its recorded protein stability index.
Reply: 2.96

---
Task item: Quick check: protein stability index of N2H ?
Reply: 2.97

Task item: Item N2T has what recorded protein stability index?
Reply: 3.36

Task item: // query protein stability index value for entry L11A
Reply: 4.7

Task item: Given the variant D7R , what is its reported protein stability index?
Reply: 3.7

Task item: Suppose we examine the variant H8E ; what protein stability index value has been reported?
Reply: 4.4
